// values below are reported pEC50
Target: T1, mouse Siglec15-his protein (mouse)
T1 construct: In house made
T1 chain: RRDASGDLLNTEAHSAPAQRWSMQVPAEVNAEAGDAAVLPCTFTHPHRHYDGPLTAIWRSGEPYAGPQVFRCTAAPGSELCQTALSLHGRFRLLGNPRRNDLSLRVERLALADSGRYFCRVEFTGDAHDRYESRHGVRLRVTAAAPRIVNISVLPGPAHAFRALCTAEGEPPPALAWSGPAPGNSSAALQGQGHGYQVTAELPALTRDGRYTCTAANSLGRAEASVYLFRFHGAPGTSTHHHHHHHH
Assay: indirect ELISA on coated mouse Siglec15-his
pEC50: −log10 of the molar value.

binder | pEC50
A2A5C7E8-2 (antibody, human IgG1, kappa, V domains shown, Variant of A2A5C7E8 modified in VH CDR2 (X1 = E)) VH: EVQLVQSGAEVKKPGESLRISCKGSGYSFTTYWISWVRQMPGKGLEWMGLIDPSESYTNYSPSFQGHVTISTDKSISTAYLQWSSLKASDTAMYYCARGGYYGSEEDYWGQGTLVTVSS VL: EIVLTQSPGTLSLSPGERATLSCRASQSVSSSRLAWFQQKSGQAPRLLIFDASSRATGIPDRFSGSGSGTDFTLTISRLEPEDFAVYYCQQYGSSPRTFGQGTKVEFKR | 9.82
A2A5C7E8 (antibody, V domains shown, Fully human antibody from transgenic mouse hybridoma; also called A2A5C7E8-1) VH: EVQLVQSGAEVKKPGESLRISCKGSGYSFTTYWISWVRQMPGKGLEWMGLIDPSDSYTNYSPSFQGHVTISTDKSISTAYLQWSSLKASDTAMYYCARGGYYGSEEDYWGQGTLVTVSS VL: EIVLTQSPGTLSLSPGERATLSCRASQSVSSSRLAWFQQKSGQAPRLLIFDASSRATGIPDRFSGSGSGTDFTLTISRLEPEDFAVYYCQQYGSSPRTFGQGTKVEFK | 9.86
A2A5C7E8-3 (antibody, human IgG1, kappa, V domains shown, Variant of A2A5C7E8 modified in VH CDR2 (X2 = K)) VH: EVQLVQSGAEVKKPGESLRISCKGSGYSFTTYWISWVRQMPGKGLEWMGLIDPSDSYTNYSPSFKGHVTISTDKSISTAYLQWSSLKASDTAMYYCARGGYYGSEEDYWGQGTLVTVSS VL: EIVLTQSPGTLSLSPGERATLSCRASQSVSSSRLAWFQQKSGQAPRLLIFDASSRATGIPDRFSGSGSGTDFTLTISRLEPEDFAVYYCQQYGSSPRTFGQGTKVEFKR | 9.80
anti-Siglec15 benchmark (ch5G12) (antibody, human IgG1, kappa, V domains shown, ch5G12 (US 20190202912A1); also called BM; Siglec15-ch5G9) VH: QVQLQQPGAELVKPGASVKMSCKASGYTFTSYWITWVIQRPGQGLEWIGDIYCGSDTMHYNEKFKNKATLTVDTSSSTAYMQLSSLTSEDSAVYYCARWWDYGSSYDYFDYWGQGTTLTVSS VL: DIKMTQSPSSMYASLGERVTITCKASQDINSYLSWFQQKPGKSPKTLIYRANRLVDGVPSRFSGSGSGQDYSLTISSLEYEDMGIYYCLQYDEFPYTFGGGTKLEIKR | 9.56

Every entry's value here was drawn from patent US20230106715A1.
